# ASSAY_SETUP: in isopropanol, 304.15 K
MEASURED_QUANTITY: solubility (mole fraction)
API note: the answer field is a bare number with no unit suffix.

Kindly indicate its recorded solubility (mole fraction). Item: OCc1cn(Cc2ccccc2)nn1
0.0707

* * *

# ASSAY_SETUP: in water, 307.15 K
MEASURED_QUANTITY: solubility (mole fraction)

For OCc1cn(Cc2ccccc2)nn1 , write its solubility (mole fraction).
0.00356

* * *

# ASSAY_SETUP: in isopropanol, 307.15 K
MEASURED_QUANTITY: solubility (mole fraction)
Write the number on its own, no unit after it.

Return the recorded solubility (mole fraction) value; entry: OCc1cn(Cc2ccccc2)nn1
0.0889
